Each entry below carries its reported IC50.
- TESTED TARGET: UniProtKB P08912
- Sequence (P08912 1-532): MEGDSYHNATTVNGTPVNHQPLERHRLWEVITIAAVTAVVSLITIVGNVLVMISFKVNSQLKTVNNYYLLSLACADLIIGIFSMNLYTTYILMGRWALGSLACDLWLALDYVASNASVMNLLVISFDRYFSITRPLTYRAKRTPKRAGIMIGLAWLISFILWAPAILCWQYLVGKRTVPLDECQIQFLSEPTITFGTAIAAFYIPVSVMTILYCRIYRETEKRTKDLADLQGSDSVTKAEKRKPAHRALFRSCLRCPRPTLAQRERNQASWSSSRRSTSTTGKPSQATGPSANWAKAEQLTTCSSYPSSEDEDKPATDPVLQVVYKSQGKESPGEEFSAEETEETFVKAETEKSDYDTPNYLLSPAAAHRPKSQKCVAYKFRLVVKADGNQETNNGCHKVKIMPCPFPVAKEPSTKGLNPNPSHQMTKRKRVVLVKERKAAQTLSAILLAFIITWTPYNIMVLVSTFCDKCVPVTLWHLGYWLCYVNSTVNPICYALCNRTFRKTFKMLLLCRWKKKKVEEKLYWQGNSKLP
- METHOD: Cell-based functional calcium mobilization assay of mAChR M5 activity (inhibition of EC80 acetylcholine response) in CHO cells
- CONDITION NOTES: CHO cells stably expressing hM5; calcium flux (Fluo-4), EC80 acetylcholine addition

// solved cases for IC50 follow
O=C(Nc1ccc2scnc2c1)C1CCN(S(=O)(=O)c2ccccc2F)CC1 [Compound 156] = > 10 µM
C[C@@H]1CN(S(=O)(=O)c2cccnc2)CC[C@@H]1C(=O)Nc1ccc2scnc2c1 (racemic) [Compound 103] = > 10 µM
N#Cc1cc(S(=O)(=O)N2CCC(C(=O)Nc3ccc4scnc4c3)CC2)ccc1Cl [Compound 9] = > 10 µM
O=C(Nc1ccc2scnc2c1)[C@@H]1CCN(S(=O)(=O)c2ccc3ncccc3c2)C1 [Compound 152] = 0.352 µM
Cc1ccc(S(=O)(=O)N2CCC(C(=O)Nc3ccc4scnc4c3)CC2)cn1 [Compound 124] = 0.105 µM

Exercise: Report value only: IC50, UniProtKB P08912, O=C(Nc1ccc2scnc2c1)C1CCN(S(=O)(=O)c2ccc(Cl)s2)CC1 [Compound 1]
Key: 2.74 µM

Exercise: Report value only: IC50, UniProtKB P08912, Cn1ncc2cc(S(=O)(=O)N3CCC(C(=O)Nc4ccc5scnc5c4)CC3)cnc21 [Compound 36]
Key: > 10 µM

Exercise: Report value only: IC50, UniProtKB P08912, O=C(Nc1ccc2scnc2c1)C12CC1CN(S(=O)(=O)c1cccnc1)C2 (racemic) [Compound 40]
Key: > 10 µM
